experiment: Oral bioavailability in dog at 10 mg/kg by liquid chromatography-tandem mass spectrometry; format: ADME, organism-based, Canis lupus familiaris; settings: in vivo
property: bioavailability (%)

{"columns": ["chemical-structure", "property", "recorded-measurement"],
 "data": [
  ["Cc1cc(C(=O)Nc2nc3cccc(Cl)c3n2[C@@H]2CCCCN(C(=O)/C=C/CN(C)C)C2)ccn1.Cl", "bioavailability", 67]
]}

###

Reported values of clearance for individual entries
assay: Clearance in balb/c mouse at 5 mg/kg, iv by liquid chromatography-tandem mass spectrometry; assay type: ADME, organism-based; settings: in vivo

{"columns": ["chemical-structure", "clearance"],
 "data": [
  ["Cc1cc(C(=O)Nc2nc3cccc(C)c3n2[C@@H]2CCCCN(C(=O)/C=C/CN(C)C)C2)ccn1", "68.5 mL/min/kg"],
  ["C=CC(=O)N1CCCC[C@@H](n2c(NC(=O)c3cccc(C(F)(F)F)c3)nc3cccc(C)c32)C1", "54 mL/min/kg"],
  ["Cc1cc(C(=O)Nc2nc3cccc(Cl)c3n2[C@@H]2CCCCN(C(=O)/C=C/CN(C)C)C2)ccn1", "31.6 mL/min/kg"],
  ["Cc1cccc2nc(NC(=O)c3cccc(C(F)(F)F)c3)n([C@@H]3CCCCN(C(=O)/C=C/CN(C)C)C3)c12", "57.2 mL/min/kg"],
  ["Cc1cccc2nc(NC(=O)c3ccnc(C(F)(F)F)c3)n([C@@H]3CCCCN(C(=O)/C=C/CN(C)C)C3)c12", "62.5 mL/min/kg"]
]}

###

assay: Volume of distribution at steady state in dog at 1 mg/kg, iv by liquid chromatography-tandem mass spectrometry; format: ADME, organism-based, Canis lupus familiaris; details: in vivo, read-out: Vdss
property: Vd

{"columns": ["chemical-structure", "recorded-measurement"],
 "data": [
  ["Cc1cc(C(=O)Nc2nc3cccc(Cl)c3n2[C@@H]2CCCCN(C(=O)/C=C/CN(C)C)C2)ccn1.Cl", "35.2 L/kg"]
]}

###

target: Epidermal growth factor receptor (Homo sapiens, UniProt P00533, L858R/T790M); experiment: Inhibition of N-terminal 6x-HIS-tagged human recombinant EGFR (696 to 1022 residues) L858R/T790M mutant expressed in Sf9 cells pre-incubated for 0 mins followed by 1 mM ATP addition by HTRF assay
Sequence (P00533 25-1210 T790M/L858R limits assumed): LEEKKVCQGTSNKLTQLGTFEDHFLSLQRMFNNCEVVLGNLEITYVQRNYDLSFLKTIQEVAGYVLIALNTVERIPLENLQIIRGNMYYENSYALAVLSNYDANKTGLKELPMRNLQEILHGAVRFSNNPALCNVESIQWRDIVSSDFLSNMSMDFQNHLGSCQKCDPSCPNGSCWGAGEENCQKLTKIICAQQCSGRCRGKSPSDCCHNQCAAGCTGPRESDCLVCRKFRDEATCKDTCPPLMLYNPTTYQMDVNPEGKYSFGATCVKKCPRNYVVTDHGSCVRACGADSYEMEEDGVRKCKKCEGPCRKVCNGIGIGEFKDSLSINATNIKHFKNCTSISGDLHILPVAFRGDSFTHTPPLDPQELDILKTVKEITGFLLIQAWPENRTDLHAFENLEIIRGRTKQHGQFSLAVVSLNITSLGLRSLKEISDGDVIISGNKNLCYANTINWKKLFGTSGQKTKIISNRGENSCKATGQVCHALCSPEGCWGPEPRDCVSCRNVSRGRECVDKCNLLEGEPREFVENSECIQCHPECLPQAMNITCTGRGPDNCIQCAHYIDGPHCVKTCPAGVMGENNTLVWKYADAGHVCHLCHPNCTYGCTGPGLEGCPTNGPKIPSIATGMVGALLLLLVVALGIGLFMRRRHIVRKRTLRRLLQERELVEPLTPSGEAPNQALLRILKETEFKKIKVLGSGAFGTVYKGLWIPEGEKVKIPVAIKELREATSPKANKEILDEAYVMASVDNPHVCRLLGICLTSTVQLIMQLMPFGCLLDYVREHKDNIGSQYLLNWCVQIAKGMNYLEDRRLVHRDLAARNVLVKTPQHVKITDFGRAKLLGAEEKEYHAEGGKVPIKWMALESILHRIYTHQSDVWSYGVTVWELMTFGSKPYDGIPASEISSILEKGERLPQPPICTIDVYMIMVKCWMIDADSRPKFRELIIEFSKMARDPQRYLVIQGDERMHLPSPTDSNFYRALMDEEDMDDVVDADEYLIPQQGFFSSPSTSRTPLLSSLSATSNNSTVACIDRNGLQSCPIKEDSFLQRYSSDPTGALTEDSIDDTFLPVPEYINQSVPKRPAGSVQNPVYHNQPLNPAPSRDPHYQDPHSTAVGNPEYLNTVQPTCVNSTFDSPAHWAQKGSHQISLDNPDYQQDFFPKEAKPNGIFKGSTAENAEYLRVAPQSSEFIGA
Below, each of the molecules is paired with its reported IC50 value.

{"columns": ["molecule", "IC50"],
 "data": [
  ["C=CC(=O)N(C)c1cccc(-n2c(NC(=O)c3cccc(C(F)(F)F)c3)nc3cc(C)ccc32)c1", "22.3 µM"],
  ["C=CC(=O)N1CC(n2c(NC(=O)c3cccc(C(F)(F)F)c3)nc3cc(C)ccc32)C1", "> 50 µM"],
  ["C=CC(=O)N[C@H]1CCCC[C@H]1n1c(NC(=O)c2cccc(C(F)(F)F)c2)nc2cc(C)ccc21 (racemic)", "> 50 µM"]
]}

###

Catalogue of compounds with associated pIC50
biological target: Epidermal growth factor receptor (Homo sapiens, UniProt P00533, L858R/T790M); assay: Inhibition of N-terminal 6x-HIS-tagged human recombinant EGFR (696 to 1022 residues) L858R/T790M mutant expressed in Sf9 cells pre-incubated for 0 mins followed by 1 mM ATP addition by HTRF assay
pIC50: −log10 of the molar value.
property: pIC50

{"columns": ["compound", "recorded-measurement"],
 "data": [
  ["C=CC(=O)Nc1ccccc1-n1c(NC(=O)c2cccc(C(F)(F)F)c2)nc2cc(C)ccc21", "< 4.30"],
  ["C=CC(=O)N1CCC(n2c(NC(=O)c3cccc(C(F)(F)F)c3)nc3cc(C)ccc32)C1 (stereo not drawn)", "< 4.30"],
  ["C=CC(=O)Nc1cccc(-n2c(NC(=O)c3cccc(C(F)(F)F)c3)nc3cc(C)ccc32)c1", "< 4.30"],
  ["C=CC(=O)N1CCC(n2c(NC(=O)c3cccc(C(F)(F)F)c3)nc3cc(C)ccc32)CC1", "< 4.42"],
  ["C=CC(=O)N[C@H]1CC[C@H](n2c(NC(=O)c3cccc(C(F)(F)F)c3)nc3cc(C)ccc32)CC1", "< 4.30"],
  ["C=CC(=O)N1CCCCC(n2c(NC(=O)c3cccc(C(F)(F)F)c3)nc3cc(C)ccc32)C1 (stereo not drawn)", 6.08],
  ["C=CC(=O)N[C@@H]1CCCC[C@H]1n1c(NC(=O)c2cccc(C(F)(F)F)c2)nc2cc(C)ccc21 (racemic)", "< 4.30"],
  ["C=CC(=O)NCCCn1c(NC(=O)c2cccc(C(F)(F)F)c2)nc2cc(C)ccc21", "< 4.30"]
]}
